# System: excised human nerve tissue (or nerve extracts)
# ASSAY: Phage display library screening (Example 2), NEB tissue-binding peptides: nerve tissue and nerve extracts versus muscle
# RUN_PARAMETERS: unique sequence count, tissue target: excised nerve, peptides not binding muscle extracts
# Protocol: Phage display library screens were used to identify peptides that bind to target proteins (including specific laminin trimers) that are expressed in human nerves, as described in Table 3. These screens were also carried out to identify peptides that could bind selectively to nerves versus muscle. Such peptides could therefore be useful for systemic in-vivo labeling of nerves during fluorescence assisted surgery. […]
Class membership depends on Count Excised Nerve alone; the intervals are LOW (below 8), MID (8 to below 10), HIGH (10 or more)

{"SEQUENCE_CODE": "RTVITNEMLLLV", "CLASS_NAME": "LOW"}
{"SEQUENCE_CODE": "GTVSYMVKMDNN", "CLASS_NAME": "MID"}
{"SEQUENCE_CODE": "VERLNWPKRMQS", "CLASS_NAME": "HIGH"}
{"SEQUENCE_CODE": "TEWMVRASSIGE", "CLASS_NAME": "LOW"}
{"SEQUENCE_CODE": "SGWHLVMSMSIG", "CLASS_NAME": "LOW"}
{"SEQUENCE_CODE": "DRGLTILTDDLR", "CLASS_NAME": "HIGH"}
{"SEQUENCE_CODE": "KTTSMTALTMGL", "CLASS_NAME": "MID"}
{"SEQUENCE_CODE": "EESNAKLELLSR", "CLASS_NAME": "HIGH"}
{"SEQUENCE_CODE": "SEPIEKGSRTIV", "CLASS_NAME": "LOW"}
{"SEQUENCE_CODE": "QSTLGVHMLRVS", "CLASS_NAME": "LOW"}
{"SEQUENCE_CODE": "YAGQNGWMRSDL", "CLASS_NAME": "HIGH"}
{"SEQUENCE_CODE": "MLKMERPGRMAY", "CLASS_NAME": "MID"}
{"SEQUENCE_CODE": "YANGIEAKDSSR", "CLASS_NAME": "HIGH"}
{"SEQUENCE_CODE": "GWNEATNSARHT", "CLASS_NAME": "HIGH"}
{"SEQUENCE_CODE": "FDPLSRNVPHKT", "CLASS_NAME": "HIGH"}
{"SEQUENCE_CODE": "NRIGHGTATGTL", "CLASS_NAME": "HIGH"}
{"SEQUENCE_CODE": "YAWDTVASRNYK", "CLASS_NAME": "HIGH"}
{"SEQUENCE_CODE": "WSGGMEDNSNRL", "CLASS_NAME": "MID"}

These entries and their values trace back to patent US20240207421A1.
